Reported pIC50 values are given for each entry in this list.
# Tested target: T1, human glucagon receptor (human, UniProt P47871 26-477)
# T1 construct: whole, on cells; the potency assay used whole cells (clone pLJ6'-4-25); also called GlucR; hGCGR
# T1 sequence (P47871 26-477): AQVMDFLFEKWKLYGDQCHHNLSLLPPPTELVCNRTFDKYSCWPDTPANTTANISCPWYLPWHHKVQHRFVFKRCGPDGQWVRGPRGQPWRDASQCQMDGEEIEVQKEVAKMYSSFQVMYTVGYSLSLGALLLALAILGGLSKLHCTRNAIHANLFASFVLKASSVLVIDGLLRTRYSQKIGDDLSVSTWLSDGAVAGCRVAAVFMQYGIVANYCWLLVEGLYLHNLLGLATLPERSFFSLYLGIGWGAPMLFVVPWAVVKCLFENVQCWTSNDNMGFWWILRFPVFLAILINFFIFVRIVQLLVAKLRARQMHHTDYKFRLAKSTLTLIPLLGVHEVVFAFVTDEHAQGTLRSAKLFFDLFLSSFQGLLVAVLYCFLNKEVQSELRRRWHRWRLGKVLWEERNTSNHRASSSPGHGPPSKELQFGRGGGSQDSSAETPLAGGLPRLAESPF
# Assay remarks: displacement of 125I-glucagon, membranes with human glucagon receptor, SPA
Numbered stars: 1 amine (or outer) side, 2 acyl side, 3 side chain; on linkers, the order of the positions; unused ones are H or OH. Square brackets hold non-standard residues; d marks the D form. Side chains are listed from the residue outwards. Ends that are not written are not given here. * marks the point of attachment. C18 diacid = O=C(O)CCCCCCCCCCCCCCCCC(=O)*; γGlu = O=C(O)[C@H](CCC(=O)[*:2])N[*:1]; Ac4c = NC1(C(=O)O)CCC1; AEEA = NCCOCCOCC(=O)O; Aib = CC(C)(N)C(=O)O
// returns pIC50 (minus log10 of molar concentration), number only

Consider the following illustrative entries.
H[Aib]QGTFTSDLSKYLESRRAREFVQWLLKT-NH2 (not fully specified (residue 28)) | 8.17
H[Aib]QGTFTSDLSKYLDLKRAREFVQWLLK([γGlu-γGlu-AEEA-AEEA-γGlu-C18 diacid])T-NH2 | 8.40
H[Ac4c]QGTFTSDLSKYLEERRARDFVQWLLK([Gly-Ser-Glu-Gly-Ser-γGlu-γGlu-C18 diacid])T-NH2 | 8.41
H[Ac4c]HGTFTSDLSKYLESRRAQDFVQWLLK([Gly-Ser-Glu-Gly-Ser-γGlu-γGlu-C18 diacid])T-NH2 | 9.15
H[Aib]QGTFTSDLSKYLDKKAAREFVAWLLNT-NH2 (not fully specified) | 7.28

# binder H[Ac4c]QGTFTSDLSKYLDLKRAREFVQWLLK([Gly-Ser-Glu-Gly-Ser-γGlu-γGlu-C18 diacid])T-NH2 ; its pIC50 = 8.51

Recorded values, source patent US20150374794A1.
